All values here come from patent US8084643B2.

# run-description: Stability of prodrugs in aqueous solution at pH 7.4 (phosphate buffer)
# Type: physicochemical
# test-parameters: pH 7.4, pH 7.4 phosphate buffer, 1 mg/mL, room temperature, florfenicol release by HPLC, read-out: Half life pH 7.4 (converted)
measurement-name: half-life at 1 mg/mL (h)

Below: 3 molecules and their reported half-life at 1 mg/mL.
* C[C@H](N)C(=O)N[C@@H](C)C(=O)O[C@H](c1ccc(S(C)(=O)=O)cc1)[C@@H](CF)NC(=O)C(Cl)Cl.Cl | 2.5
* CCNCCOC(=O)O[C@H](c1ccc(S(C)(=O)=O)cc1)[C@@H](CF)NC(=O)C(Cl)Cl.Cl | 6.1
* CS(=O)(=O)c1ccc([C@@H](OC(=O)CCCCN)[C@@H](CF)NC(=O)C(Cl)Cl)cc1.Cl | 100

A: Br.C[N+](C)(C)CCCC(=O)O[C@H](c1ccc(S(C)(=O)=O)cc1)[C@@H](CF)NC(=O)C(Cl)Cl
B: CS(=O)(=O)c1ccc([C@@H](OC(=O)OCCCN)[C@@H](CF)NC(=O)C(Cl)Cl)cc1.Cl
Of the two listed items, A and B , which carries the larger half-life at 1 mg/mL figure? Reply with the label of the item you choose. A
(A: 160 h, B: 83 h)

I: C[C@@H](N)C(=O)NCCCC(=O)O[C@H](c1ccc(S(C)(=O)=O)cc1)[C@@H](CF)NC(=O)C(Cl)Cl.Cl
II: CS(=O)(=O)c1ccc([C@@H](OC(=O)COCCN)[C@@H](CF)NC(=O)C(Cl)Cl)cc1.Cl
Just tell me: smaller half-life at 1 mg/mL value, I or II ? Reply with the label of the item you choose. II

A: CS(=O)(=O)c1ccc([C@@H](OC(=O)CNC(=O)CN)[C@@H](CF)NC(=O)C(Cl)Cl)cc1.Cl
B: CNCCCCC(=O)O[C@H](c1ccc(S(C)(=O)=O)cc1)[C@@H](CF)NC(=O)C(Cl)Cl.Cl
C: CCNCCCOC(=O)O[C@H](c1ccc(S(C)(=O)=O)cc1)[C@@H](CF)NC(=O)C(Cl)Cl.Cl
D: CNCCOC(=O)O[C@H](c1ccc(S(C)(=O)=O)cc1)[C@@H](CF)NC(=O)C(Cl)Cl.Cl
E: CS(=O)(=O)c1ccc([C@@H](OC(=O)CN)[C@@H](CF)NC(=O)C(Cl)Cl)cc1
Falling order of half-life at 1 mg/mL, please. // respond by listing labels in the order requested C, B, E, A, D
(C: 290 h, B: 84 h, E: 4.4 h, A: 0.89 h, D: 0.5 h)

----------
# run-description: Stability of prodrugs in aqueous solution at pH 4.5
# Format: physicochemical
# test-parameters: distilled water, pH 4.5, room temperature, florfenicol release by HPLC
measurement-name: half-life at 0.5 mg/mL (days)

• CS(=O)(=O)c1ccc([C@@H](OC(=O)COCCN)[C@@H](CF)NC(=O)C(Cl)Cl)cc1.Cl = 137
• CS(=O)(=O)c1ccc([C@@H](OC(=O)CN)[C@@H](CF)NC(=O)C(Cl)Cl)cc1 = 18
• C[C@H](N)C(=O)N[C@@H](C)C(=O)O[C@H](c1ccc(S(C)(=O)=O)cc1)[C@@H](CF)NC(=O)C(Cl)Cl.Cl = 290
• CNCCOC(=O)O[C@H](c1ccc(S(C)(=O)=O)cc1)[C@@H](CF)NC(=O)C(Cl)Cl.Cl = 487

P: CS(=O)(=O)c1ccc([C@@H](OC(=O)CNC(=O)CN)[C@@H](CF)NC(=O)C(Cl)Cl)cc1.Cl
Q: CNCCCOC(=O)O[C@H](c1ccc(S(C)(=O)=O)cc1)[C@@H](CF)NC(=O)C(Cl)Cl.Cl
R: CNCCCCC(=O)O[C@H](c1ccc(S(C)(=O)=O)cc1)[C@@H](CF)NC(=O)C(Cl)Cl.Cl
S: CCNCCOC(=O)O[C@H](c1ccc(S(C)(=O)=O)cc1)[C@@H](CF)NC(=O)C(Cl)Cl.Cl
Rank items: key half-life at 0.5 mg/mL, increasing. // respond by listing labels in the order requested P, S, Q, R

1: CS(=O)(=O)c1ccc([C@@H](OC(=O)OCCN)[C@@H](CF)NC(=O)C(Cl)Cl)cc1.Cl
2: CS(=O)(=O)c1ccc([C@@H](OC(=O)CCCCN)[C@@H](CF)NC(=O)C(Cl)Cl)cc1.Cl
Of the two listed items, 1 and 2 , which carries the larger half-life at 0.5 mg/mL figure? Reply with the label of the item you choose. 2

1: CCNCCCOC(=O)O[C@H](c1ccc(S(C)(=O)=O)cc1)[C@@H](CF)NC(=O)C(Cl)Cl.Cl
2: CS(=O)(=O)c1ccc([C@@H](OC(=O)[C@H](N)CCCN)[C@@H](CF)NC(=O)C(Cl)Cl)cc1.Cl.Cl
Just tell me: smaller half-life at 0.5 mg/mL value, 1 or 2 ? Reply with the label of the item you choose. 2
(2: 44 days, 1: 339 days)

----------
# run-description: Stability of prodrugs in aqueous solution at pH 7.4 (phosphate buffer)
# Type: physicochemical
# test-parameters: in vitro evaluation, pH 7.4 adjusted solution
measurement-name: formation of the rearranged isomer of the prodrug

• CS(=O)(=O)c1ccc([C@@H](OC(=O)OCCN)[C@@H](CF)NC(=O)C(Cl)Cl)cc1.Cl = considerable amounts
• CCNCCOC(=O)O[C@H](c1ccc(S(C)(=O)=O)cc1)[C@@H](CF)NC(=O)C(Cl)Cl.Cl = considerable amounts
• CNCCOC(=O)O[C@H](c1ccc(S(C)(=O)=O)cc1)[C@@H](CF)NC(=O)C(Cl)Cl.Cl = considerable amounts

----------
# run-description: Stability of prodrugs in swine serum
# Type: in vitro ADME
# test-parameters: 37° C., florfenicol release by HPLC
measurement-name: half-life at 0.099 mg/mL (h)

A: CS(=O)(=O)c1ccc([C@@H](OC(=O)CNC(=O)CN)[C@@H](CF)NC(=O)C(Cl)Cl)cc1.Cl [Example 9]
B: CS(=O)(=O)c1ccc([C@@H](OC(=O)CCCCN)[C@@H](CF)NC(=O)C(Cl)Cl)cc1.Cl [Example 10]
C: CS(=O)(=O)c1ccc([C@@H](OC(=O)OCCCN)[C@@H](CF)NC(=O)C(Cl)Cl)cc1.Cl [Example 5]
# desc sort on half-life at 0.099 mg/mL across 3 molecules // respond by listing labels in the order requested C, B, A

----------
# run-description: Stability of prodrugs in aqueous solution at pH 7.4 (phosphate buffer)
# Format: physicochemical
# test-parameters: pH 7.4, pH 7.4 phosphate buffer, 1 mg/mL, room temperature, florfenicol release by HPLC, read-out: Half life pH 7.4 (converted)
measurement-name: half-life at 1 mg/mL (h)

• CS(=O)(=O)c1ccc([C@@H](OC(=O)CCCN)[C@@H](CF)NC(=O)C(Cl)Cl)cc1.Cl [Example 3] = 300
• CS(=O)(=O)c1ccc([C@@H](OC(=O)OCCN)[C@@H](CF)NC(=O)C(Cl)Cl)cc1.Cl [Example 1] = 1.8

A: Br.Cn1cc[n+](CCCC(=O)O[C@H](c2ccc(S(C)(=O)=O)cc2)[C@@H](CF)NC(=O)C(Cl)Cl)c1 [Example 16]
B: CNCCCOC(=O)O[C@H](c1ccc(S(C)(=O)=O)cc1)[C@@H](CF)NC(=O)C(Cl)Cl.Cl [Example 6]
Of the two listed items, A and B , which carries the larger half-life at 1 mg/mL figure? Reply with the label of the item you choose. A
(A: 350 h, B: 74 h)

----------
# run-description: Stability of prodrugs in aqueous solution at pH 4.5
# Type: physicochemical
# test-parameters: distilled water, pH 4.5, room temperature, florfenicol release by HPLC
measurement-name: half-life at 0.5 mg/mL (days)

• C[C@@H](N)C(=O)NCCCC(=O)O[C@H](c1ccc(S(C)(=O)=O)cc1)[C@@H](CF)NC(=O)C(Cl)Cl.Cl = 278
• CS(=O)(=O)c1ccc([C@@H](OC(=O)OCCCN)[C@@H](CF)NC(=O)C(Cl)Cl)cc1.Cl = 248
